Test system: MS2 coat protein
Experiment: apparent KD of MS2 coat protein; designed switch direction (-1 OFF switch, 1 ON switch): -1; higher = weaker reporter binding
Conditions: input ligand: FMN 200 uM

# item-sequence, apparent KD of MS2 coat protein (nM)
rows = [
    ("GUCCUACAUGAGGAUCACCCAUGUGAGGAUAUGGUUUCGCUGGCCGUAGCCAGUGGAACCAGAAGGCGCAUGAU [Mat - Exclusion 1 - JL Mod - D1] (Eterna round: R97, puzzle: Exclusion 1)", 106),
    ("GCGCGUAGAUAGGAUAUUUGAUAAAGACGGACCAAAGAAGGAUUUACAUGAGGAUCACCCAUGUCGAUCCUCUU [EX6 C.17] (Eterna round: R97, puzzle: Exclusion 6)", 14.2),
    ("ACAUGAGGAUCACCCAUGUCUGGCUGGUCUGUUCCGGCUGUUGAGGAUAUAGUCCGGUGUUCGCGCUAGAAGGUGAGGGCUGGA [Aenatbe mod 43] (Eterna round: R96, puzzle: Exclusion NG 3)", 54.5),
    ("GCCCUCGCUGAGGAUAUUAUCUGGCUCGACCGAUAAGAAGGCAGUACAUGAGGAUCACCCAUGUGGUUCGUUCG [Polaris46] (Eterna round: R97, puzzle: Exclusion 6)", 97.9),
    ("GGCCUUCCGCGAGCUUUUUACAUGAGGAUCACCCAUGUGGUUUUUAGUCUUAUCCCGGGCCCGGUGUCGGGCCCGGG [-32.9, -53.8, A 12%] (Eterna round: R97, puzzle: Sensor, turn-off variant 1)", 29.8),
]

###

Tested on: MS2 coat protein
Experiment: apparent KD of MS2 coat protein; designed switch direction (-1 OFF switch, 1 ON switch): -1; higher = weaker reporter binding
Details: input ligand: none
endpoint: apparent KD of MS2 coat protein (nM)

# item-sequence, system-name, endpoint, reported-measurement
measured = [
    ("UGUAGUUCAGGAUAUGAUGUUAAAUACAUGAGGAUCACCCAUGUAGAUCCUGAAUUUACAUCAGAAGGGAAUAUUU [JL-ex5-4.56 Brourd mod] (Eterna round: R97, puzzle: Exclusion 5)", "MS2 coat protein", "apparent KD of MS2 coat protein", 17.1),
    ("AAUGUUUGAUUCCACUUAUACAUGAGGAUCACCCAUGUUAUCGAGGAUAUGCAUUAGAGUGUUUAGCAGAAGGCGAUGUAAUUG [JR_ExcNG3_Sub034] (Eterna round: R96, puzzle: Exclusion NG 3)", "MS2 coat protein", "apparent KD of MS2 coat protein", 13.8),
    ("CUUUAGUGAGGAUAUCGGUAGUAAUACAAUAGUAUUACUACUGAGAAGGCACAUGAGGAUCACCCAUGUUCCUC [Mat - Exclusion 4 - Mod of Omei - D82] (Eterna round: R96, puzzle: Exclusion 4)", "MS2 coat protein", "apparent KD of MS2 coat protein", 29.9),
    ("UUCGUGCAGCAAAGCUGUACGCGUACAUGAGGAUCACCCAUGUAGGAUAUGGUAGGCAAAGCUUACUAGAAGGAUAUGGUGAGC [Mat - Exclusion NG 3 - Mod of JL - D80] (Eterna round: R96, puzzle: Exclusion NG 3)", "MS2 coat protein", "apparent KD of MS2 coat protein", 35.2),
    ("GAAUAGAGAGGAUAUGCGAUGUAGGUAGUACGAUAUAUCUGACAUGAGGAUCACCCAUGUAGAAGGCUCAGAUC [EX2 #6] (Eterna round: R97, puzzle: Exclusion 2)", "MS2 coat protein", "apparent KD of MS2 coat protein", 36.4),
    ("AUAAUCGUAGGAUAUCAUUAGCCCUACAUGAGGAUCACCCAUGUGGGCUGGUGAGGGCGGUGAGAAGGACGAGAGA [EX5 B.1] (Eterna round: R97, puzzle: Exclusion 5)", "MS2 coat protein", "apparent KD of MS2 coat protein", 18.4),
]

###

Test system: MS2 coat protein
Assay: apparent KD of MS2 coat protein; designed switch direction (-1 OFF switch, 1 ON switch): -1; higher = weaker reporter binding
Conditions: Eterna round: R95; input ligand: FMN 200 uM
Lab note: compare apparent KD of MS2 coat protein against 60 nM. Equal or greater, write 1 (yes). Smaller, write 0 (no).

# item-sequence, label-class
rows = [
    ("GUGUAGGGAGGAUAUACAUGAGGAUCACCCAUGUGAAUAAGAUAGAAUAAGAUAAAGUGUAGAAGGCUUAGUGU [Excluse me!!! 24 - Jieux - Exclusion 3] (puzzle: Exclusion 3)", "0 (no)"),
    ("GAUUAUGCGAGCUUUAGGGACAUGAGGAUCACCCAUGUUCGUCUUAUUGGUCUGGAUACGCUGACAUACCUAAAUCU [JMF 97] (puzzle: Sensor v3, turn-off variant 1)", "0 (no)"),
    ("GAUUAUGCGAGCUUUAGGGACAUGAGGAUCACCCAUGUUCGUCUUAUUAGUCUAAAUGCACUGACAUACCUAAAUCU [JMF 73] (puzzle: Sensor v3, turn-off variant 1)", "0 (no)"),
    ("AGAUGUAGAUUCCGAUCCUACAUGAGGAUCACCCAUGUAGCUAGACGUGCGGGCGGCGCUCGUCGGACUACCAGUAG [salish99_TOv1_r3_096] (puzzle: Sensor v3, turn-off variant 1)", "0 (no)"),
    ("AAGAAACAUGAGGAUCACCCAUGUGAGGAUAUGAAAAAGAAAAGAAAAGAAAGAAGCUUCAGAAGGCACAAAGG [salish99-ex1_r3_030] (puzzle: Exclusion 1)", "0 (no)"),
    ("GAAAAGGUAGGAUAUACGAAAAAAAAGGGUAGAAAAAAAACACAUGAGGAUCACCCAUGUAGAAGGACCAAAAG [salish99_ex2_r3_015] (puzzle: Exclusion 2)", "0 (no)"),
    ("GAUUGACAUGAGGAUCACCCAUGUGAGGAUAUCGGCCGGACCGUGCUGGCUUCCGUCGCGAGAAGGCGCAUAGG [Exclusion 1 V41] (puzzle: Exclusion 1)", "1 (yes)"),
    ("GGUUGGCGAGGAUAUACAUGAGGAUCACCCAUGUGAGAGAUACUAGUGAGGUCGAUUAGUAGAAGGCGCUGACG [JL-ex3-2.01 salish99 mod] (puzzle: Exclusion 3)", "1 (yes)"),
    ("AGUACUGACGCGUCGGUGUUAGUACAAUAAGCUUGUGAAACAUGAGGAUCACCCAUGUCCUCAUAAGCUCGUCUUAU [salish99_TOv2_r3_082] (puzzle: Sensor v3, turn-off variant 2)", "0 (no)"),
    ("CGGUGCUGAGGAUAUACAUGAGGAUCACCCAUGUGUUCCAGCUAGGUGACUGGCGGAUGUAGAAGGCGGUACUG [JL-ex3-3.39 Brourd mod] (puzzle: Exclusion 3)", "1 (yes)"),
    ("ACAAGCUUUUUGCAUCAAGCAUUAAAGUCUGUGAUCGUAACAUGAGGAUCACCCAUGUAAGUUUUAUGUCGUCUUAU [JR_SV3TOV2_Sub097] (puzzle: Sensor v3, turn-off variant 2)", "0 (no)"),
    ("AUGAGACAUGAGGAUCACCCAUGUGAGGAUAUGUAUGGAUGAAGGAAAGAAUGAGAGAACAGAAGGCACGAAGA [JR_Exclu1_Sub064] (puzzle: Exclusion 1)", "1 (yes)"),
    ("ACGAAACAUGAGGAUCACCCAUGUGAGGAUAUGUAAAUAGUAAACAAAUAAGAAAUAAACAGAAGGCACACAGG [JR_Exclusion1_Sub004] (puzzle: Exclusion 1)", "0 (no)"),
    ("GAAAAGGUAGGAUAUACGAAAAAAUAGGGUAGAAAAAAAACACAUGAGGAUCACCCAUGUAGAAGGACCAAAAG [salish99_ex2_r3_081] (puzzle: Exclusion 2)", "0 (no)"),
    ("AUAACGUGGGCGUCCCACGGCAAGCUUUUUGCUCGUUUGACAUGAGGAUCACCCAUGUAGCUGCGGGAUCCCUAUGA [Anatsobe] (puzzle: Sensor v3, turn-off variant 2)", "0 (no)"),
    ("UUCCUACAUGAGGAUCACCCAUGUCAGGAUAUCUCCUCACCGCGAAAAGGCGGUGAAAAGAGAAGGGACAGGAA [Usbian] (puzzle: Exclusion 1)", "0 (no)"),
    ("GUGAAGAAGUUAGUGGCCUACAUGAGGAUCACCCAUGUGAGGGAAAUGUUGAGGCGAAAGUUGUGUGCUCGUCUGUA [JR_SV3TOV1_Sub040] (puzzle: Sensor v3, turn-off variant 1)", "0 (no)"),
    ("AGUAACCGUCACGAAAGUGAUGGUUACACAAGUGUAAUAACAUGAGGAUCACCCAUGUCCUCAUUUGCUCGUUUUAU [Sensor 3 - 37] (puzzle: Sensor v3, turn-off variant 2)", "0 (no)"),
    ("AGUGCGUAUGUGAGGAUAUGCUGGUCCUUGGAUCGGCAGAAGGUACAUGAGGAUCACCCAUGUGGUGUCGUUCU [salish99_Bmod_ex4_104] (puzzle: Brourd's mod of Exclusion 4)", "1 (yes)"),
    ("AAGAAACAUGAGGAUCACCCAUGUGAGGAUAUGUAAAAUAAAAGAAAAUAAAGAAUAAACAGAAGGCACAAAGG [Mat - Mod of Hog D23] (puzzle: Exclusion 1)", "0 (no)"),
]
